- ASSAYED_TARGET: Human leukocyte elastase (HLE) (Homo sapiens, UniProt P08246)
- Construct: gift of R. Senior, Washington University
- Sequence (P08246 30-267): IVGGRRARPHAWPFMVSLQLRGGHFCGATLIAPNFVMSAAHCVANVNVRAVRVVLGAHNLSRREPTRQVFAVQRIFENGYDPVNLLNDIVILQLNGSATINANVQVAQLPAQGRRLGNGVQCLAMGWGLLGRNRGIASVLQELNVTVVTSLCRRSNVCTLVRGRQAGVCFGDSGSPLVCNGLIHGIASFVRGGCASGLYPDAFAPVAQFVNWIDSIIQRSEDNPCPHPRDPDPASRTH
- TEST_DETAILS: Human leukocyte elastase assay
- Assay type: biochemical
- TEST_CONDITIONS: @ 100 (concentration unit not given)
MEASUREMENT_KIND: HLE, % @ concentration (% @ 100)
Provide only the numeric value, understood in % @ 100.

COC(=O)[C@H](Cc1ccccc1)Nc1nc2ccc(NC(=O)CCC(=O)O)c(C)c2c(=O)o1 [Example 11d]	76
Cc1c(NC(=O)OC(C)(C)C)ccc2nc(N[C@@H](C)C(=O)OC(C)(C)C)oc(=O)c12	29
Cc1c(NC(=O)OC(C)(C)C)ccc2nc(N[C@@H](C)c3ccccc3)oc(=O)c12	82
Cc1c(NC(=O)OC(C)(C)C)ccc2nc(N[C@@H](Cc3ccc(OCCN4CCCC4)cc3)C(=O)N(C)Cc3ccccc3)oc(=O)c12	75
Cc1c(CNC(=O)CN2CCOCC2)cc(Br)c2nc(N[C@@H](Cc3ccccc3)C(=O)N(C)Cc3ccccc3)oc(=O)c12 [Example 15e]	78
COC(=O)[C@H](CCS(C)(=O)=O)Nc1nc2ccc(NC(=O)OC(C)(C)C)c(C)c2c(=O)o1	29

Challenge: Return reported HLE, % @ concentration; argument: Cc1c(NC(=O)CN(C)C)ccc2nc(N[C@@H](C)c3ccccc3)oc(=O)c12 [Example 11m]
Response given: 37

Challenge: Now this one: COCC(=O)Nc1ccc2nc(N[C@@H](Cc3ccccc3)C(=O)OC)oc(=O)c2c1C [Example 11c]
Response given: 83

Challenge: Now this one: Cc1c(NC(=O)c2ccco2)ccc2nc(N[C@@H](C)c3ccccc3)oc(=O)c12 [Example 11k]
Response given: 63

Challenge: Now this one: "COC(=O)[C@H](Cc1ccc(OC)cc1)Nc1nc2ccc(NC(=O)OC(C)(C)C)c(C)c2c(=O)o1"
Response given: 29

---

- System: HCMV engineered virus RC256
- TEST_DETAILS: microbe, parasite or virus in culture
- Assay type: cell-based, human cytomegalovirus
- TEST_CONDITIONS: Human betaherpesvirus 5, Fibroblast, read-out: Antiviral Activity RC256, first value (EC50)
MEASUREMENT_KIND: pEC50
Convention used: pEC50 is expressed as -log10 of the molar concentration.

Field: example entries. Status: answers known.
Cc1c(NC(=O)OC(C)(C)C)ccc2nc(N[C@H]3CCN(c4ccc(C#N)cc4)C3=O)oc(=O)c12 [Example 6y]	4.17
Cc1c(N(C)C)ccc2nc(N[C@@H](Cc3ccccc3)C(=O)N(C)Cc3ccccc3)oc(=O)c12 [Example 16]	4.77

Challenge: Return reported pEC50; argument: COc1ccc(C[C@H](Nc2nc3ccc(CNC(=O)OCCN4CCOCC4)c(C)c3c(=O)o2)C(=O)N(C)Cc2ccccc2)cc1 [Example 18b]
Response given: 4.92

Challenge: Now this one: CCN(Cc1ccccc1)C(=O)[C@H](Cc1ccc(OC)cc1)Nc1nc2ccc(CNC(=O)Oc3ccccc3)c(C)c2c(=O)o1 [Example 9q]
Response given: 4.74

Challenge: Now this one: COc1ccc(C[C@H](Nc2nc3ccc(CNC(=O)NCc4ccccc4)c(C)c3c(=O)o2)C(=O)N(C)Cc2ccccc2)cc1 [Example 12j]
Response given: 4.77

# credit: patent US6683077B2
